Listing of recorded % Internalization relative to Control I (T47D cells, imaging) by entry.
# assaySystem: T1, human PRLR on cells (endogenous on T47D, T47D#11, MCF7); introduced in HEK293/hPRLR/STAT5-Luc, 293/hPRLR, … (human, UniProt P16471 25-622)
# T1 sequence: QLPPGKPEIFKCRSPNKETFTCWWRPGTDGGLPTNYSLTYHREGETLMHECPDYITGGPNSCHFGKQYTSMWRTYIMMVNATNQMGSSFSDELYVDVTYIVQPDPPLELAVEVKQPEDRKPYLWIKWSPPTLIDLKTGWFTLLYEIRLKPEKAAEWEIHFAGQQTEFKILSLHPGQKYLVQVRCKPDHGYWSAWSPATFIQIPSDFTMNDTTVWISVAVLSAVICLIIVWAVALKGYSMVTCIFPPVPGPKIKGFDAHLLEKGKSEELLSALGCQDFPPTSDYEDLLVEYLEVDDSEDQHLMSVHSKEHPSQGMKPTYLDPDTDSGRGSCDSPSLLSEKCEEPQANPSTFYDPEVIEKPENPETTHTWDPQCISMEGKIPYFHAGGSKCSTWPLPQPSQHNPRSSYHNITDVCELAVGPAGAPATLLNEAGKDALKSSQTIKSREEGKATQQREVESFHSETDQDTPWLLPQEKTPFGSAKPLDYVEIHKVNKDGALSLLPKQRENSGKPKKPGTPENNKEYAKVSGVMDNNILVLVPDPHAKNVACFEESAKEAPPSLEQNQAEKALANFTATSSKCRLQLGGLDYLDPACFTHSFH
# protocolText: cell-based or functional assay
recordedMetric: % Internalization relative to Control I (T47D cells, imaging) (%)

>  <binder>
H1H6782P (antibody, human IgG1, V domains shown, human IgG1 Fc (H1H)) VH: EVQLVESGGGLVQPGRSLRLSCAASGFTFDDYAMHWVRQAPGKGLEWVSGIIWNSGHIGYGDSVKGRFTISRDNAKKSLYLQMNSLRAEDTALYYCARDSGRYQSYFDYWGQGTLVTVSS VL: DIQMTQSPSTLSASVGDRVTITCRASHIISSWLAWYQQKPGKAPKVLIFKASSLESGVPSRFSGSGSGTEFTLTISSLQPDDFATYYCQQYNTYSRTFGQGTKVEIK

>  <experimentalResult>
179

$$$$
>  <binder>
H1H6793P (antibody, human IgG1, V domains shown, human IgG1 Fc (H1H)) VH: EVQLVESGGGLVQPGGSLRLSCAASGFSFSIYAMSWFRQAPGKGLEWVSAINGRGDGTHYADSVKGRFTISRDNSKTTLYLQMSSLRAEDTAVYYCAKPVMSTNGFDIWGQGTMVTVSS VL: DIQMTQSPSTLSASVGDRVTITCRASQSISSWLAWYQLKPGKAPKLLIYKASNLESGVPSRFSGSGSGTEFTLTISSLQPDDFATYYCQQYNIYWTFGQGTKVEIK

>  <experimentalResult>
180

$$$$
>  <binder>
H1H6762P (antibody, human IgG1, V domains shown, human IgG1 Fc (H1H)) VH: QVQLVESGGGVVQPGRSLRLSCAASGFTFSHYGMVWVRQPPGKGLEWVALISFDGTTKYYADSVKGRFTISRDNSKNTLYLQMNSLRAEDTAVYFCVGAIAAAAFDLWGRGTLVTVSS VL: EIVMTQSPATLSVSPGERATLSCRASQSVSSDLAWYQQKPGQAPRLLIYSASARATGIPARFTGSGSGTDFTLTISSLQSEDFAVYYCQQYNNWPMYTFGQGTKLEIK

>  <experimentalResult>
186

$$$$
>  <binder>
H1H6958N2 (antibody, human IgG1, V domains shown, also called H2M6958N2) VH: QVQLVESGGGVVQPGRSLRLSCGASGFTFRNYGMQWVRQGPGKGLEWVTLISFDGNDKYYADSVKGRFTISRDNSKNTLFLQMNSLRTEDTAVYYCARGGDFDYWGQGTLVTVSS VL: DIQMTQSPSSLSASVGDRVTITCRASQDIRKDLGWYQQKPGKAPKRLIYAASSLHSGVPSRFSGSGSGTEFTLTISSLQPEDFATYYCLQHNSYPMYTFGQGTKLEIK

>  <experimentalResult>
169

$$$$
>  <binder>
H1H6790P (antibody, human IgG1, V domains shown, human IgG1 Fc (H1H)) VH: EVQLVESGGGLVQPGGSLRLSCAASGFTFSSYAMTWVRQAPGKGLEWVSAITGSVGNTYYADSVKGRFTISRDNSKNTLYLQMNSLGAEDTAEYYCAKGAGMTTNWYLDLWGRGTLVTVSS VL: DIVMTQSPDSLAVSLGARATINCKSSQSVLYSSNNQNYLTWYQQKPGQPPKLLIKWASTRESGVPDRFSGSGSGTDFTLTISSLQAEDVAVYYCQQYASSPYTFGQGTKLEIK

>  <experimentalResult>
147

$$$$
>  <binder>
H1H6774P (antibody, human IgG1, V domains shown, human IgG1 Fc (H1H)) VH: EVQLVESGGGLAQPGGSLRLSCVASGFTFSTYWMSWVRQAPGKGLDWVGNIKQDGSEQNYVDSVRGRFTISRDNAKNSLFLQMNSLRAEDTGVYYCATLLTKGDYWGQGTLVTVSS VL: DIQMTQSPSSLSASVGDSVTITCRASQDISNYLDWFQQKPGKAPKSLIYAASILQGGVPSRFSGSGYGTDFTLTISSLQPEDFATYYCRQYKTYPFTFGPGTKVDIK

>  <experimentalResult>
162

$$$$
>  <binder>
H1H6797P (antibody, human IgG1, V domains shown, human IgG1 Fc (H1H)) VH: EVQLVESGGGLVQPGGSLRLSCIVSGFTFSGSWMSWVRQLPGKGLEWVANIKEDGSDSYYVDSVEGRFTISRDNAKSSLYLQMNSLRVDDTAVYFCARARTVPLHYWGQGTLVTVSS VL: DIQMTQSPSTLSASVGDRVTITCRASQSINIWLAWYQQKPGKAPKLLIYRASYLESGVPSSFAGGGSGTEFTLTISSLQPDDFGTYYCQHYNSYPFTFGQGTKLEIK

>  <experimentalResult>
145

$$$$
>  <binder>
H1H6960N (antibody, human IgG1, V domains shown, also called H2M6960N) VH: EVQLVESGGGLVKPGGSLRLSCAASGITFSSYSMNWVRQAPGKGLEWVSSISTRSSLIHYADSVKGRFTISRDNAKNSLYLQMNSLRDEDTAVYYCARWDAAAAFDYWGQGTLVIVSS VL: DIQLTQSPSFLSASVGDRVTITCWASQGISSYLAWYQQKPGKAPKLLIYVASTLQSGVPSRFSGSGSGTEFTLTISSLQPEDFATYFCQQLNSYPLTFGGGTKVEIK

>  <experimentalResult>
120

$$$$
>  <binder>
H1H6765P (antibody, human IgG1, V domains shown, human IgG1 Fc (H1H)) VH: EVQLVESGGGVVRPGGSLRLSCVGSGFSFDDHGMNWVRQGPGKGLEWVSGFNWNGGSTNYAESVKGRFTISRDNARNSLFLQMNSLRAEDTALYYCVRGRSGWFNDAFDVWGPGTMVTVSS VL: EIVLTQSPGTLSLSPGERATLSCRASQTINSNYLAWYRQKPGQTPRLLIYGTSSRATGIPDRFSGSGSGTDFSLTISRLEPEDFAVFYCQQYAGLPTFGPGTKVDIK

>  <experimentalResult>
186

$$$$
>  <binder>
H1H6975N (antibody, human IgG1, V domains shown, also called H2M6975N) VH: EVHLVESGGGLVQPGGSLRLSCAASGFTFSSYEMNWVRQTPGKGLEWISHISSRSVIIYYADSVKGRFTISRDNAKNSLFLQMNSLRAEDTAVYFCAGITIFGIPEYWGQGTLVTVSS VL: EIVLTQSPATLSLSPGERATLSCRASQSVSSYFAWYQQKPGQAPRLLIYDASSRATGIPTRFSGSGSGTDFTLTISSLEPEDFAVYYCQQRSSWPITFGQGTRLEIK

>  <experimentalResult>
214

$$$$
